Taken from patent US10336762B2.

- EXPERIMENTAL SYSTEM: IRAK4 enzyme (Homo sapiens (Human))
- ASSAY DETAILS: biochemical
- Type: biochemical
- REPORTED CONDITIONS: IRAK4 enzyme, TR-FRET, 500 μM ATP
# Lookup of reported IC50 keyed by entry

Use the examples below as a reference point.
MOLECULE: CC(C)(O)CCNc1cc(-c2ccc3cc(C#N)cnn23)ncc1C(=O)NC[C@@H](F)C(C)(C)O [Example 80]
EXPERIMENTAL SYSTEM: IRAK4 enzyme (Homo sapiens (Human))
REPORTED: < 1 nM
--
MOLECULE: CC(C)(C)C(=O)NC[C@H]1C[C@H](Nc2cc(-c3ccc4cc(C#N)cnn34)ncc2C(=O)NC[C@@H](F)C(C)(C)O)C1 [Example 824]
EXPERIMENTAL SYSTEM: IRAK4 enzyme (Homo sapiens (Human))
REPORTED: < 1 nM

Here's the next entry for you.
stdin: Consider the molecule COC(=O)NCc1ccc(Nc2cc(-c3ccc4cc(C#N)cnn34)ncc2C(=O)NC[C@@H](F)C(C)(C)O)cc1F [Example 834] and give its measured IC50.
stdout: < 1 nM

====

- System: TNFα
- ASSAY DETAILS: cells
- Assay type: cell-based, human
- REPORTED CONDITIONS: Homo sapiens, Monocyte, LPS-stimulated human monocytes, TNFα content; read-out: EC50 TNF
Measured EC50 accompanies every entry in the list below.
// return numeric value only (unit: nM, not printed)

LINE NOTATION: CC1(Nc2cc(-c3ccc4cc(C#N)cnn34)ncc2C(=O)NC[C@@H](F)C(C)(C)O)CC1
EXPERIMENTAL SYSTEM: TNFα
UNIT ABBREV: nM
EC50: 25
--
LINE NOTATION: CC(C)(O)[C@H](F)CNC(=O)c1cnc(-c2ccc3cc(C#N)cnn23)cc1Nc1ccc(C(F)(F)F)nc1
EXPERIMENTAL SYSTEM: TNFα
UNIT ABBREV: nM
EC50: 145

stdin: # query: EC50 of entry `CC(C)(O)[C@H](F)CNC(=O)c1cnc(-c2ccc3cc(C#N)cnn23)cc1Nc1cnn([C@@H]2CCN(C3COC3)C2)c1`
stdout: 133

====

Each entry below carries its reported IC50.
- EXPERIMENTAL SYSTEM: IRAK4 enzyme (Homo sapiens (Human), UniProt Q9NWZ3)
- Sequence (Q9NWZ3 whole entry): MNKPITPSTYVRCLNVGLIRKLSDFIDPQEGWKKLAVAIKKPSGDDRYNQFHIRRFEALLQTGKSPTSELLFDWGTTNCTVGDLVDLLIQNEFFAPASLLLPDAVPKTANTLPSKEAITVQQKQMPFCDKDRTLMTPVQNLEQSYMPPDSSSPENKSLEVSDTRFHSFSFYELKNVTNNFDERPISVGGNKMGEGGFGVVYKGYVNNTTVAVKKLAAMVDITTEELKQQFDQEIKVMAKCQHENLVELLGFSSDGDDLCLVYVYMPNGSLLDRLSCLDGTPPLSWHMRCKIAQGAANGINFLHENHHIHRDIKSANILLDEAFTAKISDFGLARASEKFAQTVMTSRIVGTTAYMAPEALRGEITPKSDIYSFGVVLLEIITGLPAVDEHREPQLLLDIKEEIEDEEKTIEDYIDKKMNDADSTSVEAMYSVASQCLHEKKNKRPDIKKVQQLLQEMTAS
- ASSAY DETAILS: biochemical
- Assay type: biochemical
- REPORTED CONDITIONS: IRAK4 enzyme, TR-FRET (HTRF), 500 μM ATP
Express the result in nM but write the number alone.

As a guide, the following entries are already answered.
COMPOUND: CNC(=O)c1cnc(-c2ccc3cc(C#N)cnn23)cc1NC12CC(NC(=O)C3CC3)(C1)C2 [Example 480]
UNIT ABBREV: nM
IC50: 2

COMPOUND: CC(C)(O)[C@H](F)CNC(=O)c1cnc(-c2ccc3cc(C#N)cnn23)cc1NC1CCCC(S(C)(=O)=O)C1 (single isomer, unassigned) [Example 515]
UNIT ABBREV: nM
IC50: 5

COMPOUND: CNC(=O)c1cnc(-c2ccc3cc(C#N)cnn23)cc1NC12CCC(NC(C)=O)(CC1)C2 [Example 473]
UNIT ABBREV: nM
IC50: 1

COMPOUND: Cc1cc(Nc2cc(-c3ccc4cc(C#N)cnn34)ncc2C(=O)NC[C@@H](F)C(C)(C)O)ncc1C(N)=O [Example 582]
UNIT ABBREV: nM
IC50: 3

COMPOUND: CC(C)(O)[C@H](F)CNC(=O)c1cnc(-c2ccc3cc(C#N)cnn23)cc1Nc1cccc(OC(F)F)c1 [Example 608]
UNIT ABBREV: nM
IC50: 1

stdin: Requested read-out IC50, target or system IRAK4 enzyme (Homo sapiens (Human), UniProt Q9NWZ3), entry CC(=O)Nc1cncc(NC(=O)c2cnc(-c3ccc4cc(C#N)cnn34)cc2NC(C)C)c1 [Example 491]
stdout: 19

====

- Tested on: TNFα
- ASSAY DETAILS: cells
- Type: cell-based, human
- REPORTED CONDITIONS: Homo sapiens, Monocyte, LPS-stimulated human monocytes, TNFα content; read-out: EC50 TNF
OUTCOME MEASURE: pEC50
pEC50 (log units): -log10 of the concentration in mol/L.

These solved cases illustrate the format of a correct answer.
LINE NOTATION: CC(C)(O)[C@H](F)CNC(=O)c1cnc(-c2ccc3cc(C#N)cnn23)cc1N[C@H]1CC[C@H](CN2CCOC2=O)CC1
EXPERIMENTAL SYSTEM: TNFα
pEC50: 7.24

LINE NOTATION: CC(C)(O)[C@H](F)CNC(=O)c1cnc(-c2ccc3cc(C#N)cnn23)cc1NC12CCC(CC1)CC2
EXPERIMENTAL SYSTEM: TNFα
pEC50: 7.62

Now consider a different compound.
stdin: Write down the reported pEC50 of `Cn1cncc1-c1ccc(Nc2cc(-c3ccc4cc(C#N)cnn34)ncc2C(=O)NC[C@@H](F)C(C)(C)O)cc1` , test system: TNFα.
stdout: 7.41

====

Entries annotated with measured EC50
- Tested on: TNFα
- ASSAY DETAILS: cells
- Assay type: cell-based, human
- REPORTED CONDITIONS: Homo sapiens, Monocyte, LPS-stimulated human monocytes, TNFα by TR-FRET; read-out: EC50 TNF
Record the value in nM, omitting the unit from your answer.

LINE NOTATION: COc1cc(Nc2cc(-c3ccc4cc(C#N)cnn34)ncc2C(=O)NC[C@@H](F)C(C)(C)O)cnc1OC
UNIT ABBREV: nM
EC50: 127
--
LINE NOTATION: CC(C)(O)[C@H](F)CNC(=O)c1cnc(-c2ccc3cc(C#N)cnn23)cc1Nc1ccc(C(C)(C)N2CCCC2=O)cc1
UNIT ABBREV: nM
EC50: 64

Below: the item to evaluate.
stdin: Recall the recorded EC50 for `N#Cc1cnn2c(-c3cc(NC45CCC(O)(CC4)CC5)c(C(=O)NCc4ccccn4)cn3)ccc2c1` with TNFα and state it.
stdout: 147

====

Here, each record is paired with measured IC50 data.
- EXPERIMENTAL SYSTEM: IRAK4 enzyme (Homo sapiens (Human))
- ASSAY DETAILS: biochemical
- Format: biochemical
- REPORTED CONDITIONS: IRAK4 enzyme, TR-FRET (HTRF), 500 μM ATP

COMPOUND: CC(=O)Nc1ccc(Nc2cc(-c3ccc4cc(C#N)cnn34)ncc2C(=O)NC[C@@H](F)C(C)(C)O)cn1 [Example 662]
REPORTED: < 1 nM
--
COMPOUND: CC(C)(O)[C@H](F)CNC(=O)c1cnc(-c2ccc3cc(C#N)cnn23)cc1Nc1cnc(N)nc1 [Example 658]
REPORTED: < 1 nM

// switching to the query compound
stdin: Lab note: need IC50 for CC(C)(O)[C@H](F)CNC(=O)c1cnc(-c2ccc3cc(C#N)cnn23)cc1Nc1cnc2cc[nH]c2c1 [Example 566] on IRAK4 enzyme (Homo sapiens (Human)), anyone have it?
stdout: < 1 nM

====

- EXPERIMENTAL SYSTEM: IRAK4 enzyme (Homo sapiens (Human))
- ASSAY DETAILS: biochemical
- Type: biochemical
- REPORTED CONDITIONS: IRAK4 enzyme, TR-FRET, 500 μM ATP
OUTCOME MEASURE: pIC50
Expect pIC50 as a plain number equal to -log10 of the molar concentration.

Observe how each entry below is paired with its result.
LINE NOTATION: CC(C)(O)[C@H](F)CNC(=O)c1cnc(-c2ccc3cc(C#N)cnn23)cc1N[C@H]1CC[C@H](NC(=O)OC2CCC2)CC1
OUTCOME MEASURE: pIC50
REPORTED: 9.00

LINE NOTATION: CC(C)(O)[C@H](F)CNC(=O)c1cnc(-c2ccc3cc(C#N)cnn23)cc1Nc1nc(Cc2ccccc2)cs1
OUTCOME MEASURE: pIC50
REPORTED: 8.30

stdin: Quick one: pIC50 of `N#Cc1cnn2c(-c3cc(NC45CCC(O)(CC4)CC5)c(C(=O)NCc4ccncc4)cn3)ccc2c1` ?
stdout: 8.52

====

# maps each entry to its IC50
- EXPERIMENTAL SYSTEM: IRAK4 enzyme (Homo sapiens (Human))
- ASSAY DETAILS: biochemical
- Format: biochemical
- REPORTED CONDITIONS: IRAK4 enzyme, TR-FRET, 500 μM ATP
Please give a number only; it is taken to be in nM.

Some entries whose results are on file:
COMPOUND: CC(C)Nc1cc(-c2ccc3cc(C#N)cnn23)ncc1C(=O)NCCS(N)(=O)=O
REPORTED: 2

COMPOUND: CN1CCC(Nc2cc(-c3ccc4cc(C#N)cnn34)ncc2C(=O)NC[C@@H](F)C(C)(C)O)CC1=O (stereo partly drawn)
REPORTED: 1

COMPOUND: CC(C)Nc1cc(-c2ccc3cc(C#N)cnn23)ncc1C(=O)N[C@H]1CC[C@H](NC(=O)C2CC2)CC1
REPORTED: 1

COMPOUND: CNC(=O)c1cnc(-c2ccc3cc(C#N)cnn23)cc1NC1CCC(NC(=O)C(F)(F)F)CC1 (stereo not drawn)
REPORTED: 3

Now for a further compound.
stdin: Recorded IC50 of `CC(C)(O)[C@H](F)CNC(=O)c1cnc(-c2ccc3cc(C#N)cnn23)cc1Nc1nnc(Cc2ccccc2)o1` , please.
stdout: 5
